Read-out: CYP3A5 (gene 1577)
experiment description: LTEA_HepaRG_CYP3A5: Life Technologies and Expression Analysis (LTEA) Assay for CYP3A5 using HepaRG (AID 2283493)
condition notes: mRNA level, 48 h; actives raise or lower the signal
Protocol: LTEA_HepaRG is a cell based, multiplexed-readout assay that uses HepaRG, a human liver cell line, with measurements taken at 48 hours after chemical dosing on a 96-well plate.LTEA_HepaRG_CYP3A5 is one of 102 assay component(s) measured in the LTEA HepaRG cell culture assay. It is a marker of NR mediated metabolism.Data from the assay component LTEA_HepaRG_CYP3A5 was analyzed into 1 endpoint. […]
Calls of active or inactive are those of the source. The calls were made as follows: active = hit-call score of the fitted dose curve at least 0.9, where 1 is the maximum; inactive = score below 0.9.
Result category, one only: active, inactive

For orientation, consider the following solved cases.
O=C(O)c1c(Cl)ccc2cc(Cl)cnc12 :: inactive
CCC(C)n1c(=O)[nH]c(C)c(Br)c1=O (stereo unspecified) :: active
Cc1nc(N(C)C)nc(OC(=O)N(C)C)c1C :: inactive
CCOC(=O)C(C)OC(=O)c1cc(Oc2ccc(C(F)(F)F)cc2Cl)ccc1[N+](=O)[O-] (stereo unspecified) :: active

# fetch the recorded call for `OC(c1ccc(Cl)cc1)(c1ccc(Cl)cc1)C(Cl)(Cl)Cl` here active

# fetch the recorded call for COCc1cnc(C2=NC(C)(C(C)C)C(=O)N2)c(C(=O)O)c1 (stereo unspecified) here inactive

====

Read-out: Vascular cell adhesion molecule 1 (VCAM1), VCAM1 (gene 7412)
experiment description: BSK_hDFCGF_VCAM1: BioMAP Diversity Plus: hDFCGF Assay for Vascular cell adhesion molecule 1 (VCAM1) Biomarker Activity (AID 2283065);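 as to AC50: VCAM-1 protein level quantified by ELISA after 24 h chemical exposure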
condition notes: primary human foreskin fibroblasts; actives raise or lower the signal
Protocol: BSK_hDFCGF is a cell-based, multiplexed-readout assay that uses foreskin fibroblast, a human skin primary cell, with measurements taken at 24 hours after chemical dosing in a 96-well plate.BSK_hDFCGF_VCAM1 is an assay component measured in the BSK_hDFCGF assay. It measures VCAM-1 antibody related to regulation of gene expression using ELISA technology.Data from the assay component BSK_hDFCGF_VCAM1 was analyzed into 1 assay endpoint. […]
Active and inactive are the calls of the source. The calls were made as follows: active = hit-call score of the fitted dose curve at least 0.9, where 1 is the maximum; inactive = score below 0.9.
experimental readout: AC50

A selection of reference data follows.
COCC(C)N(C(=O)CCl)c1c(C)csc1C (centres undefined) :: inactive
COCC(=O)N(c1c(C)cccc1C)C(C)C(=O)OC (centres undefined) :: inactive
Cn1c(-c2ccccc2)cc(-c2ccccc2)[n+]1C :: inactive
CCCN(CC)CC1COC2(CCC(C(C)(C)C)CC2)O1 (centres undefined) :: inactive
Cc1ccc(N=CN(C)C=Nc2ccc(C)cc2C)c(C)c1 :: 15.8 µM (active)
CC1(C)C(C=C(Cl)Cl)C1C(=O)OC(C#N)c1cccc(Oc2ccccc2)c1 (centres undefined) :: inactive
COP(=S)(OC)Oc1ccc([N+](=O)[O-])c(C)c1 :: 9.37 µM (active)
Cc1cc(C)nc(Nc2ccccc2)n1 :: inactive

Please turn your attention to the following entry.
Check the records and state AC50 for `N#CN=C1SCCN1Cc1ccc(Cl)nc1` inactive

====

Read-out: Tissue Factor, F3 (gene 2152)
experiment description: BSK_LPS_TissueFactor: BioMAP Diversity Plus: LPS Assay for Tissue Factor Biomarker Activity (AID 2283084)
condition notes: primary human HUVEC with PBMC; actives raise or lower the signal
The source made the active and inactive calls. The calls were made as follows: active = hit-call score of the fitted dose curve at least 0.9, where 1 is the maximum; inactive = score below 0.9.
Result category, one only: active, inactive

For orientation, consider the following solved cases.
O=P(O)(O)CCCl :: inactive
COP(=O)(OC)O/C(C)=C/C(=O)N(C)C :: inactive
Nc1c(Cl)c(F)nc(OCC(=O)O)c1Cl :: active
Cc1cc(C)nc(Nc2ccccc2)n1 :: inactive
COc1cc(Cl)c(OC)cc1Cl :: inactive
CCCCC(O)(Cn1cncn1)c1ccc(Cl)cc1Cl (configuration not stated) :: inactive

# fetch the recorded call for CCNP(=S)(OC)O/C(C)=C/C(=O)OC(C)C (configuration not stated) here inactive

====

measured on: Retinoic acid receptor alpha (Homo sapiens)
experiment description: ATG_DR5_RAR_CIS: Attagene CIS-FACTORIAL HepG2 Assay for human Retinoic Acid Receptor Alpha (RARE), DR5 submotif (AID 2282934)
condition notes: HepG2 Attagene cis-factorial RARE DR5 reporter, mRNA; actives raise or lower the signal
The source made the active and inactive calls. Rule for the calls: active = hit-call score of the fitted dose curve at least 0.9, where 1 is the maximum; inactive = score below 0.9.
Result category, one only: active, inactive

For orientation, consider the following solved cases.
COCc1cnc(C2=NC(C)(C(C)C)C(=O)N2)c(C(=O)O)c1 (configuration not stated) :: inactive
Cc1c(COC(=O)[C@@H]2[C@H](/C=C(\Cl)C(F)(F)F)C2(C)C)cccc1-c1ccccc1 :: inactive
CCOc1cc(C(C)(C)C)ccc1C1COC(c2c(F)cccc2F)=N1 (configuration not stated) :: active
Cc1cc(C)nc(Nc2ccccc2)n1 :: inactive
CC1(C)CON(Cc2ccccc2Cl)C1=O :: inactive

# fetch the recorded call for `N#CN=C1SCCN1Cc1ccc(Cl)nc1` here inactive

# fetch the recorded call for `COc1cc(Cl)c(OC)cc1Cl` here inactive

# fetch the recorded call for `Cn1c(-c2ccccc2)cc(-c2ccccc2)[n+]1C` here inactive

# fetch the recorded call for `OC(c1ccc(Cl)cc1)(c1ccc(Cl)cc1)C(Cl)(Cl)Cl` here inactive

# fetch the recorded call for `CCOP(=O)(OCC)Oc1nc(Cl)c(Cl)cc1Cl` here inactive

# fetch the recorded call for `CCOP(=S)(OCC)Oc1nc(Cl)n(C(C)C)n1` here inactive

# fetch the recorded call for COCC(=O)N(c1c(C)cccc1C)C(C)C(=O)OC (configuration not stated) here inactive

====

Read-out: Matrix Metallopeptidase 1 (MMP1), MMP1 (gene 4312)
experiment description: BSK_BE3C_MMP1: BioMAP Diversity Plus: BE3C Assay for Matrix Metallopeptidase 1 (MMP1) Biomarker Activity (AID 2283024)
condition notes: primary human bronchial epithelial cells; actives raise or lower the signal
Description: BSK_BE3C is a cell-based, multiplexed-readout assay that uses bronchial epithelial cell, a human lung primary cell, with measurements taken at 24 hours after chemical dosing in a 96-well plate.BSK_BE3C_MMP1 is an assay component measured in the BSK_BE3C assay. It measures MMP-1 antibody related to regulation of gene expression using ELISA technology.Data from the assay component BSK_BE3C_MMP1 was analyzed into 1 assay endpoint. […]
Calls of active or inactive are those of the source. Rule for the calls: active = hit-call score of the fitted dose curve at least 0.9, where 1 is the maximum; inactive = score below 0.9.
Result category, one only: Y for active, N for inactive

For orientation, consider the following solved cases.
CN/C(=N\[N+](=O)[O-])NCc1cnc(Cl)s1 :: N
CSC(=O)c1c(C(F)F)nc(C(F)(F)F)c(C(=O)SC)c1CC(C)C :: Y
Clc1cccc(C(Cl)(Cl)Cl)n1 :: N
COP(=O)(OC)O/C(C)=C/C(=O)N(C)C :: N

# fetch the recorded call for COCC(=O)N(c1c(C)cccc1C)C(C)C(=O)OC (stereo not given) here N

# fetch the recorded call for `Nc1c(Cl)c(F)nc(OCC(=O)O)c1Cl` here N

# fetch the recorded call for O=C1C2CC=CCC2C(=O)N1SC(Cl)(Cl)Cl (stereo not given) here Y

# fetch the recorded call for CCN(CC)C(=O)C(C)Oc1cccc2ccccc12 (stereo not given) here Y

# fetch the recorded call for `CCSC(=O)N1CCCCCC1` here N

# fetch the recorded call for Cc1cnc(C2=NC(C)(C(C)C)C(=O)N2)c(C(=O)O)c1 (stereo not given) here N

# fetch the recorded call for `CCCCOCN(C(=O)CCl)c1c(CC)cccc1CC` here Y

# fetch the recorded call for `COP(=S)(OC)Oc1ccc([N+](=O)[O-])c(C)c1` here N

# fetch the recorded call for CC(C)(C)C(=O)C(Oc1ccc(Cl)cc1)n1cncn1 (stereo not given) here N

# fetch the recorded call for COCc1cnc(C2=NC(C)(C(C)C)C(=O)N2)c(C(=O)O)c1 (stereo not given) here N

# fetch the recorded call for `CS(=O)(=O)c1ccc(C(=O)C2C(=O)CCCC2=O)c([N+](=O)[O-])c1` here N

# fetch the recorded call for CC(C)C1(C)N=C(c2ncccc2C(=O)O)NC1=O (stereo not given) here N

====

experiment description: STM_H9_CystineISnorm_perc: Stemina devTOX quickPredict H9 human embryonic stem cell (hESC)-based Assay for Cystine (CYSS) Metabolite Biomarker, Normalized (AID 2283713)
Activity calls are given as the source filed them. How the source made its calls: active means hit-call score of the fitted dose curve at least 0.9, where 1 is the maximum; inactive means score below 0.9.
experimental readout: AC50

N#Cc1c[nH]cc1-c1cccc2c1OC(F)(F)O2 :: 29.4 µM (active)
CC1(C)CCC(=Cc2ccc(Cl)cc2)C1(O)Cn1cncn1 (centres undefined) :: 28.9 µM (active)
CCNP(=S)(OC)O/C(C)=C/C(=O)OC(C)C (centres undefined) :: 75.5 µM (active)
CS(=O)(=O)c1ccc(C(=O)C2C(=O)CCCC2=O)c([N+](=O)[O-])c1 :: inactive
CCOc1nc(F)cc2nc(S(=O)(=O)Nc3c(Cl)cccc3Cl)nn12 :: 0.0249 µM (active)

Dear reader, for each entry below, please note its AC50.
1. CCCCC(O)(Cn1cncn1)c1ccc(Cl)cc1Cl (centres undefined)
2. CCN(CC)C(=O)C(C)Oc1cccc2ccccc12 (centres undefined)
3. CC(C)Nc1nc(Cl)nc(NC(C)C)n1
4. CCCCC(C#N)(Cn1cncn1)c1ccc(Cl)cc1 (centres undefined)
5. CCOc1nc(C(Cl)(Cl)Cl)ns1
6. CO/N=C(/C1=NOCCO1)c1ccccc1Oc1ncnc(Oc2ccccc2Cl)c1F
7. CCC(C)n1c(=O)[nH]c(C)c(Br)c1=O (centres undefined)

78.9 µM (active)
5.52 µM (active)
5.93 µM (active)
inactive
inactive
9.72 µM (active)
inactive

Dear reader, for each entry below, please note its AC50.
1. Cc1cc(C)nc(Nc2ccccc2)n1
2. COc1cc(OC)nc(NC(=O)NS(=O)(=O)c2ncccc2OCC(F)(F)F)n1

1: 7.74 µM (active); 2: inactive
